Target: mouse FAP (Mus musculus)
Where a name gives a salt, the structure may show the parent alone. Starred links: 1 amine or outer side, 2 acyl side, 3 side chain; linkers in the order of their positions; H or OH if unused. Non-standard residues stand in square brackets, D forms with d. Residues, ends and D or L forms follow the SMILES beside them. Groups on a side chain read outwards from the residue. *: point of attachment. AAZTA5 = O=C(O)CN1CCN(CC(=O)O)CC(CCCCC(=O)*)(N(CC(=O)O)CC(=O)O)C1; DOTA = O=C(O)CN1CCN(CC(=O)O)CCN(CC(=O)*)CCN(CC(=O)O)CC1; Nicotinoyl(6-NMe3+) = C[N+](C)(C)c1ccc(C(=O)*)cn1; Phe(4-CH2NH2) = NCc1ccc(C[C@H](N)C(=O)O)cc1; Piperazinyl(4-CH2COOH) = O=C(O)CN1CCN(*)CC1; AEF = NCCOc1ccc(C[C@H](N)C(=O)O)cc1; NMeF = CN[C@@H](Cc1ccccc1)C(=O)O; Aoc(2) = CCCCCC[C@H](N)C(=O)O; d(αMeP) = C[C@]1(C(=O)O)CCCN1; Ahp(2) = CCCCC[C@H](N)C(=O)O; NMeK = CN[C@@H](CCCCN)C(=O)O; hSer = N[C@@H](CCO)C(=O)O; AEEA = NCCOCCOCC(=O)O; CO = O=C([*:1])[*:2]; X3 = FC1(F)CCN(*)C1; Propyl = CCC*
readout.kind: pIC50
pIC50 field: float, defined as -log10 of concentration (mol/L).

molecule | number
CCCCC[C@@H]1NC(=O)[C@H](Cc2ccc(O)cc2)NC(=O)[C@H](Cc2ccccc2)N(C)C(=O)CNC(=O)CNC(=O)[C@@]2(C)CCCN2C(=O)[C@H](CC(=O)O)NC(=O)[C@H](Cc2ccc(O)cc2)NC(=O)CNC(=O)[C@H](Cc2c[nH]c3ccccc23)NC1=O [Example A70] (cyclo([Ahp(2)]WGYD[d(αMeP)]GG[NMeF]Y)) | 9.94
CCCCC[C@@H]1NC(=O)[C@H](Cc2ccc(OCCNC(=O)CN3CCN(CC(=O)O)CCN(CC(=O)O)CCN(CC(=O)O)CC3)cc2)NC(=O)[C@H](Cc2ccccc2)N(C)C(=O)CNC(=O)CNC(=O)[C@H]2CCCN2C(=O)[C@H](CC(=O)O)NC(=O)[C@H](Cc2ccc(O)cc2)NC(=O)CNC(=O)[C@H](Cc2c[nH]c3ccccc23)NC1=O [Example B23, TFA salt] (cyclo([AEF](DOTA)[Ahp(2)]WGYD[dP]GG[NMeF])) | 10.23

I would be grateful if you could share the reported pIC50 for CCCCC[C@@H]1NC(=O)[C@H](Cc2ccc(O)cc2)NC(=O)[C@H](Cc2ccccc2)N(C)C(=O)CNC(=O)CNC(=O)[C@H]2CCCN2C(=O)[C@H](CC(=O)O)NC(=O)[C@H](CCCCNC(=O)N2CCN(CC(=O)O)CC2)N(C)C(=O)CNC(=O)[C@H](Cc2c[nH]c3ccccc23)NC1=O [Example A3, TFA salt] (cyclo([Ahp(2)]WG[NMeK]([CO-Piperazinyl(4-CH2COOH)])D[dP]GG[NMeF]Y)) . 9.02

Dear colleague, I am looking for the recorded pIC50 of the following molecule: CCCOCC[C@@H]1NC(=O)[C@H](Cc2ccc(CNC(=O)COCCOCCN)cc2)NC(=O)[C@H](Cc2ccccc2)N(C)C(=O)CNC(=O)CNC(=O)[C@H]2CCCN2C(=O)[C@H](CC(=O)O)NC(=O)[C@H](CCCCNC(=O)N2CCN(CC(=O)O)CC2)NC(=O)CNC(=O)[C@H](Cc2c[nH]c3ccccc23)NC1=O [Example A2, TFA salt] (cyclo(D[dP]GG[NMeF][Phe(4-CH2NH2)](AEEA)[hSer](Propyl)WGK([CO-Piperazinyl(4-CH2COOH)]))) 10.33

Report pIC50 for CCCCCC[C@@H]1NC(=O)[C@H](Cc2ccc(CNC(=O)COCCOCCNC(=O)c3ccc([N+](C)(C)C)nc3)cc2)NC(=O)[C@H](Cc2ccccc2)N(C)C(=O)CNC(=O)CNC(=O)[C@H]2CCCN2C(=O)[C@H](CC(=O)O)NC(=O)[C@H](CCCCNC(=O)N2CCN(CC(=O)O)CC2)NC(=O)CNC(=O)[C@H](Cc2c[nH]c3ccccc23)NC1=O [Example C57] (cyclo([Aoc(2)]WGK([CO-Piperazinyl(4-CH2COOH)])D[dP]GG[NMeF][Phe(4-CH2NH2)]([AEEA-Nicotinoyl(6-NMe3+)]))) please. 10.80

Value lookup for pIC50; key = CCCCC[C@@H]1NC(=O)[C@H](Cc2ccc(O)cc2)NC(=O)[C@H](Cc2ccccc2)N(C)C(=O)CNC(=O)CNC(=O)[C@H]2CCCN2C(=O)[C@H](CCO)NC(=O)[C@H](Cc2ccc(O)cc2)NC(=O)CNC(=O)[C@H](Cc2c[nH]c3ccccc23)NC1=O [Example A57] (cyclo([Ahp(2)]WGY[hSer][dP]GG[NMeF]Y)) 7.60

Data request, read-out pIC50, for CN1C(=O)CNC(=O)[C@H](CCCCN)NC(=O)[C@H]2CCCN2C(=O)[C@H](CC(=O)O)NC(=O)[C@H](Cc2ccc(O)cc2)NC(=O)CNC(=O)[C@H](Cc2c[nH]c3ccccc23)NC(=O)[C@H](CCC(=O)N2CCC(F)(F)C2)NC(=O)[C@H](Cc2ccc(O)cc2)NC(=O)[C@@H]1Cc1ccccc1 [Example A30, TFA salt] (cyclo(D[dP]KG[NMeF]YE(X3)WGY)) 8.60

Give the measured pIC50 of CCCOCC[C@@H]1NC(=O)[C@H](Cc2ccc(CNC(=O)COCCOCCNC(=O)CCCCC3(N(CC(=O)O)CC(=O)O)CN(CC(=O)O)CCN(CC(=O)O)C3)cc2)NC(=O)[C@H](Cc2ccccc2)N(C)C(=O)CNC(=O)CNC(=O)[C@H]2CCCN2C(=O)[C@H](CC(=O)O)NC(=O)[C@H](CCCCNC(=O)N2CCN(CC(=O)O)CC2)NC(=O)CNC(=O)[C@H](Cc2c[nH]c3ccccc23)NC1=O [Example B31] (cyclo(D[dP]GG[NMeF][Phe(4-CH2NH2)]([AEEA-AAZTA5])[hSer](Propyl)WGK([CO-Piperazinyl(4-CH2COOH)]))) . 10.00

Given the molecule CCCCC[C@@H]1NC(=O)[C@H](Cc2ccc(O)cc2)NC(=O)[C@H](Cc2ccccc2)N(C)C(=O)CNC(=O)CNC(=O)[C@H]2CCCN2C(=O)[C@H](CCCCNC(C)=O)NC(=O)[C@H](Cc2ccc(O)cc2)NC(=O)CNC(=O)[C@H](Cc2c[nH]c3ccccc23)NC1=O [Example A55] (cyclo([Ahp(2)]WGYK(Ac)[dP]GG[NMeF]Y)) , what is its reported pIC50? 7.08

Which measured pIC50 value corresponds to CCCCC[C@@H]1NC(=O)[C@H](Cc2ccc(CNC(=O)COCCOCCN)cc2)NC(=O)[C@H](Cc2ccccc2)N(C)C(=O)CNC(=O)CNC(=O)[C@H]2CCCN2C(=O)[C@H](CC(=O)O)NC(=O)[C@H](Cc2ccc(O)cc2)NC(=O)CNC(=O)[C@H](Cc2c[nH]c3ccccc23)NC1=O [Example A27] (cyclo([Ahp(2)]WGYD[dP]GG[NMeF][Phe(4-CH2NH2)](AEEA))) ? 9.86

* * *

Biological target: mouse FAP (Mus musculus, UniProt P97321)
Sequence (P97321 26-761): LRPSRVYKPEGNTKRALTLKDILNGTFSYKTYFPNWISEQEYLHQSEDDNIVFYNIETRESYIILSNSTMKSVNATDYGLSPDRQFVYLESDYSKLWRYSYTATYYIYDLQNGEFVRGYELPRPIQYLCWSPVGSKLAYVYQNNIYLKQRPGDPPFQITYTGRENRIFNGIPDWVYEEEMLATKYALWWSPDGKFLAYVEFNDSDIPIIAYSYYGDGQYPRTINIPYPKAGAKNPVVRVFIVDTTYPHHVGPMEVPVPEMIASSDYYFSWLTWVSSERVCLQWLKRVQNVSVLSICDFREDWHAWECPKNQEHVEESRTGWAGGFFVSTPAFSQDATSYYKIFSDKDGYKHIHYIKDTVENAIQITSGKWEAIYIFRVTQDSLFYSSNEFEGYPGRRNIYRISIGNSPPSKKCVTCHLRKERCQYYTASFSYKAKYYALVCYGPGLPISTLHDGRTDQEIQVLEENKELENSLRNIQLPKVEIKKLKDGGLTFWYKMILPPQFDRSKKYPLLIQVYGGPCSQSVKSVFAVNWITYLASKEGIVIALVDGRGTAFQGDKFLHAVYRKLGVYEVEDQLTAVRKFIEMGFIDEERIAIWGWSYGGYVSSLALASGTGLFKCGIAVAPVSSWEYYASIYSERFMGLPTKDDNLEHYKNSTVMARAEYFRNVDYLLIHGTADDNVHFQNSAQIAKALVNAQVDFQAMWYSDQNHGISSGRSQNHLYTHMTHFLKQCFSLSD
pIC50: −log10 of the molar value. Structures can show the parent of a compound that is named as a salt. Non-standard residues stand in square brackets, D forms with d. Residues, ends and D or L forms follow the SMILES beside them. Groups on a side chain read outwards from the residue. *: point of attachment. DOTA = O=C(O)CN1CCN(CC(=O)O)CCN(CC(=O)*)CCN(CC(=O)O)CC1; Trp(7-OMe) = COc1cccc2c(C[C@H](N)C(=O)O)c[nH]c12; Trp(7-F) = N[C@@H](Cc1c[nH]c2c(F)cccc12)C(=O)O; Phe(4-CH2NH2) = NCc1ccc(C[C@H](N)C(=O)O)cc1; NMeAla(cPent) = CN[C@@H](CC1CCCC1)C(=O)O; NMeF = CN[C@@H](Cc1ccccc1)C(=O)O; Ahp(2) = CCCCC[C@H](N)C(=O)O; AEEA = NCCOCCOCC(=O)O
Respond with rule met for pIC50 values of 9 and above, rule not met for values below.

# example entries with known answers
compound | class.label
CCCCC[C@@H]1NC(=O)[C@H](Cc2ccc(CNC(C)=O)cc2)NC(=O)[C@H](Cc2ccccc2)N(C)C(=O)CNC(=O)CNC(=O)[C@H]2CCCN2C(=O)[C@H](CC(=O)O)NC(=O)[C@H](Cc2ccc(O)cc2)NC(=O)CNC(=O)[C@H](Cc2c[nH]c3ccccc23)NC1=O [Example A28] (cyclo(GG[NMeF][Phe(4-CH2NH2)](Ac)[Ahp(2)]WGYD[dP])) | rule met
CCCCC[C@@H]1NC(=O)[C@H](Cc2ccc(O)cc2)NC(=O)[C@H](Cc2ccccc2)N(C)C(=O)CNC(=O)CNC(=O)[C@H]2CCCN2C(=O)[C@H](CC(=O)O)NC(=O)[C@H](Cc2ccc(O)cc2)NC(=O)CNC(=O)[C@H](Cc2c[nH]c3c(OC)cccc23)NC1=O [Example A61] (cyclo([Ahp(2)][Trp(7-OMe)]GYD[dP]GG[NMeF]Y)) | rule met
CCCCC[C@@H]1NC(=O)[C@H](Cc2ccc(O)cc2)NC(=O)[C@H](Cc2ccccc2)N(C)C(=O)CNC(=O)[C@H](CCCCN)NC(=O)[C@H]2CCCN2C(=O)[C@H](CC(=O)O)NC(=O)[C@H](Cc2ccc(O)cc2)NC(=O)CNC(=O)[C@H](Cc2c[nH]c3c(F)cccc23)NC1=O [Example A23, TFA salt] (cyclo([Ahp(2)][Trp(7-F)]GYD[dP]KG[NMeF]Y)) | rule met

Could you verify whether the entry CCCCC[C@@H]1NC(=O)[C@H](Cc2ccc(CNC(=O)COCCOCCNC(=O)CN3CCN(CC(=O)O)CCN(CC(=O)O)CCN(CC(=O)O)CC3)cc2)NC(=O)[C@H](Cc2ccccc2)N(C)C(=O)CNC(=O)CNC(=O)[C@H]2CCCN2C(=O)[C@H](CC(=O)O)NC(=O)[C@H](Cc2ccc(O)cc2)NC(=O)CNC(=O)[C@H](Cc2c[nH]c3ccccc23)NC1=O [Example B16, TFA salt] (cyclo([Ahp(2)]WGYD[dP]GG[NMeF][Phe(4-CH2NH2)]([AEEA-DOTA]))) shows pIC50 of no less than 9? rule met

Does CCCCC[C@@H]1NC(=O)[C@H](Cc2ccc(O)cc2)NC(=O)[C@H](CC2CCCC2)N(C)C(=O)CNC(=O)[C@H](CCCCN)NC(=O)[C@H]2CCCN2C(=O)[C@H](CC(=O)O)NC(=O)[C@H](Cc2ccc(O)cc2)NC(=O)CNC(=O)[C@H](Cc2c[nH]c3ccccc23)NC1=O [Example A44, TFA salt] (cyclo([Ahp(2)]WGYD[dP]KG[NMeAla(cPent)]Y)) have a reported pIC50 of at least 9? rule not met

Taken from patent US20250090699A1.
